Tested on: NEK9
experimental conditions: concentration: 1 μM,replicates: in singlicate; n = 1;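 also: KINOMEscan kinase panel screen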
attribute measured: %Inh
Form field: result (number plus unit)

Observed %Inh, NEK9, Cn1ccc2ncnc(Oc3ccc(NC(=O)Nc4cnn(C(C)(C)C)c4)c(Cl)c3)c21 : 0%

Observed %Inh, NEK9, CC(C)S(=O)(=O)N1CCN(Cc2ccc3c(c2)nc(NC(=O)c2ccsc2)n3C[C@H](O)c2ccccc2)CC1 : 1%

Observed %Inh, NEK9, CCn1c(-c2nonc2N)nc2cncc(CNC3CCNCC3)c21.Cl : 38%

Observed %Inh, NEK9, CN1CCN(CCNc2nc3cc(Oc4ccc(NC(=O)Nc5cc(C(F)(F)F)ccc5F)cc4)ccc3[nH]2)CC1.Cl.Cl : 0%

Observed %Inh, NEK9, CS(=O)(=O)c1cccc(CNc2nc(Nc3ccc4c(c3)[C@@H]3C[C@@H]4CNC3=O)ncc2C(F)(F)F)c1 : 2%

Observed %Inh, NEK9, Nc1nccc(-c2ccc3c(N)n[nH]c3c2)n1 : 10%

Observed %Inh, NEK9, O=C(Nc1cccc(Oc2ccc3nccn3n2)c1)Nc1cccc(C(F)(F)F)c1 : 0%

Observed %Inh, NEK9, Cn1ccc2ncnc(Oc3ccc(NC(=O)Nc4cc(C(C)(C)C)on4)c(Cl)c3)c21 : 3%

Observed %Inh, NEK9, CN(c1cccc(CNc2nc(Nc3ccc4c(c3)CC(=O)N4)ncc2C(F)(F)F)c1)S(C)(=O)=O : 6%

* * *

Test system: RSK4(Kin.Dom.2-C-terminal)
Construct: gene RPS6KA6
experimental conditions: concentration: 1 μM,replicates: in singlicate; n = 1
attribute measured: %Inh (%)
Provide the reading as a plain figure in %.

Short answer for Cn1cc(-c2cccc3c(N)c(C(N)=O)nnc23)cn1 : %Inh was 3

Short answer for N#Cc1cccc(C(=O)NC2CCN(c3ccnc(Nc4ccc(F)cc4)n3)C2)c1 (centres unmarked) : %Inh was 0

Short answer for CC(C)S(=O)(=O)N1CCN(Cc2ccc3c(c2)nc(NC(=O)c2ccsc2)n3C[C@H](O)c2ccccc2)CC1 : %Inh was 9

Short answer for C[C@@H](Oc1cc(-n2cnc3ccc(-c4ccncc4)cc32)sc1C(N)=O)c1ccccc1Cl : %Inh was 0

Short answer for CN1CCN(CCCNc2nccc(-c3c(-c4ccc(F)cc4)nn4cc(C(N)=O)ccc34)n2)CC1 : %Inh was 91.6

Short answer for NC(=O)c1ccc(-c2cc3ncnc(SCC(=O)O)c3s2)cc1 : %Inh was 0

Short answer for CCNCC(Cc1ccccc1)NC(=O)c1cc(Br)c(-c2ccnc3[nH]ccc23)s1.Cl.Cl (centres unmarked) : %Inh was 18

Short answer for O=C(Nc1ccc(Oc2ccc3nc(NC(=O)C4CC4)cn3n2)c(F)c1)c1cccn(-c2ccccc2)c1=O : %Inh was 0

* * *

Tested on: CHEK2
experimental conditions: concentration: 1 μM,replicates: in singlicate; n = 1
attribute measured: %Inh (%)
Provide the reading as a plain figure in %.

Observed %Inh, CHEK2, CS(=O)c1ccc(-c2coc3ccc(-c4n[nH]c(=O)o4)cc23)cc1 (centres unmarked) : 42

Observed %Inh, CHEK2, O=C(NOCC1CC1)c1cc(Br)c(F)c(F)c1Nc1ccc(I)cc1Cl : 0

Observed %Inh, CHEK2, Cn1ccc2ncnc(Oc3ccc(NC(=O)Nc4cccc(C(F)(F)F)c4)c(F)c3)c21 : 1

Observed %Inh, CHEK2, CCCC(=O)Nc1n[nH]c2ncccc12 : 0

Observed %Inh, CHEK2, Cl.Nc1n[nH]c2cc(-c3ccccn3)ccc12 : 0
